- Assay overview: Intravenous and oral pharmacokinetic profile
- Assay type: in vivo, ICR mice
- Settings: male, ICR, mouse, plasma, iv
Observation type: half-life (h)
Give the value in h but do not write h after it.

Prompt line: Query: half-life; subject: CC(=O)N1N=C(c2cccc(O)c2)CC1c1ccc(Cl)cc1 (stereo not shown)
Response line: 9.74

====

- Assay overview: Intravenous and oral pharmacokinetic profile
- Format: in vivo, ICR mice
- Settings: male, ICR, mouse, plasma, po
Observation type: bioavailability (%)
Give the value in % but do not write % after it.

Prompt line: Query: bioavailability; subject: CC(=O)N1N=C(c2cccc(O)c2)CC1c1ccc(Cl)cc1 (stereo not shown)
Response line: 25.1
